ASSAY PROCEDURE: NCI Yeast Anticancer Drug Screen. Data for the mgt1 strain (AID 153)
CONDITION DETAILS: S. cerevisiae mgt1 mutant growth inhibition; at 100.0 µM; stronger effect = higher value
Compounds without any hit were thinned out: in the full panel of roughly 79,000, 15% have a hit.
Values of growth inhibition greater than or equal to 90% map to Met; values below map to Not met.

In [3]: df
Out[3]:
                                    molecule  label_class
 0  CC(C)C1=CCC2C(=C1)CCC1C(C)(C(=O)O)CCCC21C (centres undefined) (tested in a mixture with another compound)          Met
 1          S=C(N/N=C/c1ccccn1)Nc1ccc(Cl)cc1      Not met
 2  CCCCCCCCCCC1CCC(=O)O1 (centres undefined)          Met
 3                          NC(=O)NN=C(CS)CS      Not met
 4         O=C(Nc1ccccc1)OCCc1ccc(Cl)c(Cl)c1      Not met
 5           CCC/C(Cl)=N\OC(=O)Nc1ccc(Br)cc1          Met
 6  CCCCN1C(=O)N(c2ccc(OCC)cc2)C2N(CCCC)C1C(C)(C)C2(C)C (centres undefined)      Not met
 7                O=C(c1ccc(Cl)cc1Cl)C(Cl)Cl          Met
 8           O=C(c1cc(Br)ccc1O)c1cc(Br)ccc1O          Met
 9  CCCCCCc1cc(C(=O)OC/C(C)=N/NC(N)=O)c2ccccc2n1      Not met
10  O=C(Nc1ccccc1)C(=O)C(C(=O)c1ccccc1)C(c1ccccc1)c1ccccc1 (centres undefined)      Not met
11     Cc1ccc(NC(=O)/C(Cl)=C(\Cl)C(=O)O)cc1C          Met
12            Cc1nc(-c2ccccc2)c(-c2ccccc2)s1          Met
13  CCC#CCCCOC(=O)c1cc([N+](=O)[O-])cc([N+](=O)[O-])c1          Met
14   S=C(Nc1ccc(Cl)c(Cl)c1)SCc1ccc2c(c1)OCO2          Met
15         Clc1cccc(C(Nc2nncs2)Nc2nncs2)c1Cl      Not met
16  Cc1cc(S(=O)(=O)/N=C(/NN)NNc2cccc(C(F)(F)F)n2)c(S)cc1Cl      Not met
17                CN1Cc2ccccc2/C=C\c2ccccc21      Not met
18  COc1cc2c(c(OC)c1OC)-c1c(cc3c(c1OC)OCO3)CC(C)C(C)(O)C2OC(=O)c1ccccc1 (centres undefined)      Not met
19  O=C(OCCN1CCCCCC1)C(c1ccsc1)C1CCCCC1 (centres undefined)      Not met
20                  O=C(O)CNc1ccc(Cl)c(Cl)c1          Met
21                  CC(=O)OCc1ccc(O)c(C=O)c1      Not met
22  c1ccc(-c2ccnc3c2ccc2c(-c4ccccc4)ccnc23)cc1          Met
23      CCN(CC)CCC(=O)c1ccc(Oc2ccc(F)cc2)cc1          Met
